Test: NCI Yeast Anticancer Drug Screen. Data for the cln2 rad14 strain (AID 165)
Settings: S. cerevisiae cln2 rad14 strain, at 50.0 µM
About 79,000 compounds went through this panel and 15% of them were active in at least one assay; those are over-represented in the sample as a whole. Activity calls are given as the source filed them. Rule as the data show it: active = growth inhibition above about 70%; inactive = the rest.
Possible outcomes: active, inactive

> print(dat)
                                    molecule  label.value
 1  COC(=O)C1=C(C(=O)OC)[C]([Hg][CH3])(C(C)=O)N=N1 (stereo not given)       active
 2                                 CCOC(=S)S       active
 3         CC(Br)c1ccccc1 (stereo not given)     inactive
 4  S=P(Nc1ccccc1)(Oc1ccccc1)c1ccccc1 (stereo not given)       active
 5  C(CCC[Te][Te]CCCCCCOC1CCCCO1)CCOC1CCCCO1 (stereo not given)     inactive
 6  [Cl][Hg][CH2]CC1CC=CCC1 (stereo not given)       active
 7  C[n+]1[se]nc2cc(C(=O)c3ccccc3)ccc21 (tested in a mixture with another compound)       active
 8                     Oc1cccc2nc3ccccc3nc12     inactive
 9  CCCCN(C)CC(C(C)=O)C(c1ccccc1)c1c(O)c2ccccc2oc1=O (stereo not given)       active
10                        CSc1ccccc1[As](C)C       active
11  CC(C)CC(NC(=O)C(N)C(C)C)C(=O)NC(CCCCN)C(=O)Nc1ccc(N(CCCl)CCCl)cc1 (stereo not given)     inactive
12  CCC(C)c1cc([N+](=O)[O-])cc([N+](=O)[O-])c1O (stereo not given)     inactive
13  COC(=O)c1c(C)ccc2c(O)c3c(cc12)C(=O)c1c2c(cc(O)c1C3=O)C1(C)OC(C)(O2)C(O)C(N(C)C)C1O (stereo not given)       active
14  CCCCN1C(=O)C2C(C1=O)C1(Cl)C(Cl)=C(Cl)C2(Cl)C1(Cl)Cl (stereo not given)       active
15          COc1ccc(/C=C(/C)[N+](=O)[O-])cc1     inactive

* * *

Test: NCI Yeast Anticancer Drug Screen. Data for the CLN2oe strain (AID 163)
Conditions: S. cerevisiae CLN2oe strain, at 33.0 µM
About 79,000 compounds went through this panel and 15% of them were active in at least one assay; those are over-represented in the sample as a whole. Activity calls are given as the source filed them. Rule as the data show it: active = growth inhibition above about 70%; inactive = the rest.
Possible outcomes: Y (active), N (inactive)

Molecule	Label Value
O=[N+]([O-])O.[NH-]C1CCCCC1[NH-].[NH-]C1CCCCC1[NH-].[NH-]C1CCCCC1[NH-].[OH-].[OH-].[OH-].[Pt+4].[Pt+4].[Pt+4] (stereo unspecified)	N
CC1=C2C(=C[C@@](C)(CO)[C@@H]2O)C(=O)[C@](C)(O)C12CC2	N
COc1cccc2c1C(=O)c1c(O)c3c(c(O)c1C2=O)C[C@@](O)(/C(C)=N\O)C[C@@H]3OC1CC(N)C(O)C(C)O1 (stereo partly specified)	N
C[C@@]12CCC(=O)C=C1CC[C@H]1C2=CC[C@]2(C)C1CC[C@@]2(C)O (stereo partly specified)	Y
CN(C)CCSC1=Nc2ccc(Cl)cc2C(c2ccccc2Cl)=NC1	N
N#Cc1cc(N(CCCl)CCCl)c([N+](=O)[O-])cc1[N+](=O)[O-]	N
